assay: PK parameter test in SD rats; type: in vivo, Sprague-Dawley rats; details: Sprague-Dawley, rat, po; male SD rats, intragastrical administration 10 mg/kg, plasma
RECORDED METRIC: Tmax (min)
Reply with just the number (in min).

Here is how some molecules turned out for Tmax.
[2H]C([2H])([2H])Oc1ccc([C@@H](CS(C)(=O)=O)N2C(=O)c3cc(F)cc(NC(C)=O)c3C2=O)cc1OCC | 30
CCOc1cc([C@@H](CS(C)(=O)=O)N2C(=O)c3cccc(NC(C)=O)c3C2=O)ccc1OC [Reference compound 2, reference compound] | 60

Now consider the entry below.
Incoming: Would you mind telling me what Tmax value was observed for CCOc1nc([C@@H](CS(C)(=O)=O)N2C(=O)c3cccc(NC(C)=O)c3C2=O)ccc1OC ?
Outgoing: 40.2

###

Entries and their measured IC50 follow.
Biological target: PDE4B1 (Homo sapiens, UniProt Q07343)
Construct: purchased BPS 60041
Sequence (Q07343 whole entry): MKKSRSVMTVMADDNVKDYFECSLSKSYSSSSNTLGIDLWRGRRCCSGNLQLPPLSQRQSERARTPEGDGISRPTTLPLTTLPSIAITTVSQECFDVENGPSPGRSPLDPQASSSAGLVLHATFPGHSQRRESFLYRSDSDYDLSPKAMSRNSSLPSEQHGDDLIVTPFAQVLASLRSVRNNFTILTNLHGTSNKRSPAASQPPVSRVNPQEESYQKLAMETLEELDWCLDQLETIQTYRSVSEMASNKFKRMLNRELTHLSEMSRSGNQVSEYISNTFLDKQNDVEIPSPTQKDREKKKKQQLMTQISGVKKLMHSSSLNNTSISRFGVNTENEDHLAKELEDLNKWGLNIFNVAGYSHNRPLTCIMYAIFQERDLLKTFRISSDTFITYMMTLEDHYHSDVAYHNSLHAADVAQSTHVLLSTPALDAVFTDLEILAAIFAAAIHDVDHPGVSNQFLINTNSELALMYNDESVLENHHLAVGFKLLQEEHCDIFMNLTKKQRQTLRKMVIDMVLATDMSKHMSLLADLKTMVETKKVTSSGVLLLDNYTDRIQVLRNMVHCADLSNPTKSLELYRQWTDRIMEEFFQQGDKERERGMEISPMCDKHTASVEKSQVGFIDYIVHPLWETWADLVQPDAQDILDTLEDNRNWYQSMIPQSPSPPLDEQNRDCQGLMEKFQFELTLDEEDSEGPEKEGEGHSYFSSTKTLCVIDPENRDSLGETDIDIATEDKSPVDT
Experiment: PDE4 activity inhibition assay, PDE4B1
Assay type: biochemical
Details: FAM-cAMP substrate, 30 minutes at room temperature
Description: The IC50 value of the inhibitory effect of the compound on PDE4A1A, PDE4B1 and PDE4D3 was tested. Positive compound: Trequinsin (Sigma, Cat. No. T2057). Equipment: Wallac Victor Multi-label counter (Perkin Elmer). I. Preparing 1× reaction liquid and termination liquid; II. […] The inhibition rate was calculated by Excel; IC50 was calculated by GraphPad Prism.
Reply with just the number (in nM).

[2H]C([2H])([2H])Oc1ccc([C@H](CS(C)(=O)=O)N2C(=O)c3cc(F)cc(NC(C)=O)c3C2=O)nc1OCC | 93
[2H]C([2H])([2H])Oc1ccc([C@@H](CS(C)(=O)=O)N2C(=O)c3c(Cl)ccc(NC(C)=O)c3C2=O)cc1OCC | 5.1
CCOc1cc(C(CS(C)(=O)=O)N2C(=O)c3ccnc(NC(C)=O)c3C2=O)ccc1OC (stereo not shown) | 211
CCOc1nc([C@H](CS(C)(=O)=O)N2C(=O)c3cccc(NC(C)=O)c3C2=O)ccc1OC | 55
CCOc1cc(C(CS(C)(=O)=O)N2C(=O)c3c(F)ccc(NC(C)=O)c3C2=O)ccc1OC (stereo not shown) | 27
CCOc1nc(C(CS(C)(=O)=O)N2C(=O)c3cccc(NC(=O)CO)c3C2=O)ccc1OC (stereo not shown) | 36.3

Now consider the entry below.
Incoming: Would you mind telling me what IC50 value was observed for [2H]C([2H])([2H])Oc1ccc([C@H](CS(C)(=O)=O)N2C(=O)c3c(F)ccc(NC(C)=O)c3C2=O)cc1OC([2H])([2H])[2H] ?
Outgoing: 493

###

Target: PDE4D3 (Homo sapiens, UniProt Q08499)
Construct: purchased BPS 60046
Sequence (Q08499 1-673 isoform Q08499-2): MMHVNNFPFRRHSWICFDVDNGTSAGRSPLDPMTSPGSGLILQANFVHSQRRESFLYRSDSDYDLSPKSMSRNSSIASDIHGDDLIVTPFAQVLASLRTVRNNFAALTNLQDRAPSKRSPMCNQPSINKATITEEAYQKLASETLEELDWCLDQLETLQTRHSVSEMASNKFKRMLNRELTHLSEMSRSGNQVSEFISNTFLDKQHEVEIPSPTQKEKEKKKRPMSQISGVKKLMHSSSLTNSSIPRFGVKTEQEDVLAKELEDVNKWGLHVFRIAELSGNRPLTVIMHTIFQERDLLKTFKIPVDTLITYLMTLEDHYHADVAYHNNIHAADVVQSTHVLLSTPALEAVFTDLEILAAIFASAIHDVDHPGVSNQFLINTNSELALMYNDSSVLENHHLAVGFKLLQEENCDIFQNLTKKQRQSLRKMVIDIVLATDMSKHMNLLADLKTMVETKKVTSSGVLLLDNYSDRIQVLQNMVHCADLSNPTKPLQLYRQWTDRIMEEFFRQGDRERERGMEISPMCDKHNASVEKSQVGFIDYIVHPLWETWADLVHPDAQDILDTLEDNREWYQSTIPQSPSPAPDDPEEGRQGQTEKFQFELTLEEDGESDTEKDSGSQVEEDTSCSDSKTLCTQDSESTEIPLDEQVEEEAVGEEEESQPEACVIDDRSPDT
Test: PDE4 activity inhibition assay, PDE4D3
Type: biochemical
Settings: FAM-cAMP substrate, 30 minutes at room temperature
Experimental: The IC50 value of the inhibitory effect of the compound on PDE4A1A, PDE4B1 and PDE4D3 was tested. Positive compound: Trequinsin (Sigma, Cat. No. T2057). Equipment: Wallac Victor Multi-label counter (Perkin Elmer). I. Preparing 1× reaction liquid and termination liquid; II. […] The inhibition rate was calculated by Excel; IC50 was calculated by GraphPad Prism.
Checkbox rule: IC50 lower than 100 nM = t; IC50 not lower than 100 nM = f.

// known answers, use as guide
CCOc1cc(C(CS(C)(=O)=O)N2C(=O)c3ccnc(NC(C)=O)c3C2=O)ccc1OC (stereo not shown) | f
CCOc1nc(C(CS(C)(=O)=O)N2C(=O)c3cccc(NS(C)(=O)=O)c3C2=O)ccc1OC (stereo not shown) | t
CCOc1cc([C@@H](CS(C)(=O)=O)N2C(=O)c3cncc(NC(C)=O)c3C2=O)ccc1OC | f

Incoming: Consider the molecule CCOc1cc([C@@H](CS(C)(=O)=O)N2C(=O)c3c(F)ccc(NC(C)=O)c3C2=O)ccc1OC . Is its IC50 strictly less than 100 nM?
Outgoing: t

Incoming: Consider the molecule CCOc1cc(C(CS(C)(=O)=O)N2C(=O)c3nccc(NC(C)=O)c3C2=O)ccc1OC (stereo not shown) . Is its IC50 strictly less than 100 nM?
Outgoing: f

Incoming: Consider the molecule CCOc1cc(C(CS(C)(=O)=O)N2C(=O)c3cccc(NC(C)=O)c3C2=O)ncc1OC (stereo not shown) . Is its IC50 strictly less than 100 nM?
Outgoing: f

Incoming: Consider the molecule [2H]C([2H])([2H])Oc1ccc([C@@H](CS(C)(=O)=O)N2C(=O)c3cc(F)cc(NC(C)=O)c3C2=O)cc1OCC . Is its IC50 strictly less than 100 nM?
Outgoing: t

Hello, the source for this data is patent US11337964B2, in case you need it.
